# target under test: IDH1 R132C (Homo sapiens, UniProt O75874, R132C)
# Sequence (O75874 whole entry R132C): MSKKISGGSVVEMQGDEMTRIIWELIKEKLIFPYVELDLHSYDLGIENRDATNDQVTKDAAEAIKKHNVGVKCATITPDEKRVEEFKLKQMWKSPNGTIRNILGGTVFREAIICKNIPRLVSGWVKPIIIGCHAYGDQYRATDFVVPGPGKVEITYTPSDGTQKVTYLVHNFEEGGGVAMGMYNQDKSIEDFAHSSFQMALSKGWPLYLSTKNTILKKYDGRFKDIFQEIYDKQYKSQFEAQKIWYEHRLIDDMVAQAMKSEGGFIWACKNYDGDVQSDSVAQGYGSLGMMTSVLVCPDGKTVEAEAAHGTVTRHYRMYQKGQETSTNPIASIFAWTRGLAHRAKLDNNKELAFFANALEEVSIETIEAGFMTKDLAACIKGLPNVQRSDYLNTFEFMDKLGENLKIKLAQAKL
# protocol text: IDH1 R132C enzymatic assay (NADPH depletion coupled to diaphorase/resazurin)
# Assay type: biochemical
# condition details: IDH1 R132C enzymatic inhibition, IC50 class
pIC50: −log10 of the molar value.

{"columns": ["compound", "target under test", "pIC50"],
 "data": [
  ["CC1(C)CC(=O)c2cc(-c3nc(-c4ccc(Cl)cc4)cs3)c(=O)n(-c3ccccc3OC(F)(F)F)c2C1", "IDH1 R132C (Homo sapiens, UniProt O75874, R132C)", "6.00 to 6.52"],
  ["CCc1cccc(CC)c1-n1c(C=C(C)C)c(C(=O)N2CCNC(=O)C2(C)C)cc(-c2nc(-c3ccc(Cl)cc3)cs2)c1=O", "IDH1 R132C (Homo sapiens, UniProt O75874, R132C)", "> 6.52"],
  ["CCc1cccc(C)c1-n1c2c(cc(-c3nc(-c4ccc(Cl)cc4)cs3)c1=O)C(=O)CC(C)(C)C2", "IDH1 R132C (Homo sapiens, UniProt O75874, R132C)", "6.00 to 6.52"],
  ["COc1ccc(OC)c(-n2c3c(cc(-n4ccc(-c5ccccc5)n4)c2=O)C(=O)CC(C)(C)C3)c1", "IDH1 R132C (Homo sapiens, UniProt O75874, R132C)", "5.30 to 6.00"],
  ["CCc1cccc(CC)c1-n1c(C)c(C(=O)N2CCNCC2)c(O)c(C(=O)Nc2nc(-c3ccc(Cl)cc3)cs2)c1=O", "IDH1 R132C (Homo sapiens, UniProt O75874, R132C)", "< 4.70"],
  ["COc1ccc(Cl)c(-n2c3c(cc(-c4nc(-c5ccc(Cl)cc5)cs4)c2=O)C(=O)CC(C)(C)C3)c1", "IDH1 R132C (Homo sapiens, UniProt O75874, R132C)", "> 6.52"],
  ["CCc1cccc(CC)c1-n1c(C)c(C(=O)N2CCN[C@@H](C)C2)cc(-c2nc(-c3ccc(Cl)cc3)cs2)c1=O", "IDH1 R132C (Homo sapiens, UniProt O75874, R132C)", "6.00 to 6.52"],
  ["CCc1cccc(CC)c1-n1c2c(cc(-c3nc(-c4ccccc4C)cs3)c1=O)C(=O)CC(C)(C)C2", "IDH1 R132C (Homo sapiens, UniProt O75874, R132C)", "5.30 to 6.00"],
  ["CCc1cccc(CC)c1-n1c(CC(C)C)c(C(=O)N2CCNCC2C(=O)OC)cc(-c2nc(-c3ccc(Cl)cc3)cs2)c1=O (stereo not drawn)", "IDH1 R132C (Homo sapiens, UniProt O75874, R132C)", "> 6.52"],
  ["CCc1cccc(CC)c1-n1c(CC(C)C)c(C(=O)N2CCNCC2)cc(-c2nc(-c3ccc(N4CCOCC4)cc3)c(C)s2)c1=O", "IDH1 R132C (Homo sapiens, UniProt O75874, R132C)", "4.70 to 5.30"],
  ["CCc1cccc(CC)c1-n1c(CC(C)C)c(C(=O)N2CCNC(C)(C)C2)cc(-c2nc(-c3ccc(Cl)cc3)cs2)c1=O", "IDH1 R132C (Homo sapiens, UniProt O75874, R132C)", "> 6.52"],
  ["CCc1cccc(CC)c1-n1c2c(cc(-c3nc(-c4ccc(Cl)cc4)cs3)c1=O)C(=O)N(C)C2C(C)C (stereo not drawn)", "IDH1 R132C (Homo sapiens, UniProt O75874, R132C)", "6.00 to 6.52"]
]}
